The values you see were collected from patent US20240408169A1.

# system_under_test: CyclinA2/CDK2 (Homo sapiens)
# Construct: purchased CRELUX Protein Services
# protocol_details: Fluorescence Polarization (FP) competitive binding assay, Cyclin A2/Cdk2
# settings: 8 nM Cyclin A2/Cdk2, 2 nM FAM probe; average of 2-3 independent experiments; read-out: Cyclin A FP IC50
*1 amine or outer side, *2 acyl side, *3 side chain or, on linkers, in order; H or OH if unused. Where a SMILES comes first, the peptide text is derived from it. Bridges are numbered along the chain shown (N, C = ends). [ ]: non-standard residue; d: D form. The star is where a group is joined. NMePhe(2-(4-MorPh),5-Cl) = CN[C@@H](Cc1cc(Cl)ccc1-c1ccc(N2CCOCC2)cc1)C(=O)O; X42 = CN([C@@H](Cc1cc(Cl)ccc1-c1cnn(S(=O)(=O)C2CC2)c1)C(=O)[*:2])[*:1]; X87 = CN([C@@H](Cc1cc(F)ccc1-c1ccc(N2CCOCC2)cc1)C(=O)[*:2])[*:1]; NMehhhLys(Me) = CN([C@@H](CCCCCCCN(C)[*:3])C(=O)[*:2])[*:1]; NMe(hhhLys) = CN([C@@H](CCCCCCCN[*:3])C(=O)[*:2])[*:1]; cBuCO(3,3-F2-1-CF3) = O=C(C1(C(F)(F)F)CC(F)(F)C1)*; Pro(trans-4-F) = O=C(O)[C@@H]1C[C@@H](F)CN1; Gly(cPr) = N[C@H](C(=O)O)C1CC1; X102 = C[C@]1(C(=O)*)CC1(F)F
measured_quantity: IC50 (µM)
Give the number; µM is assumed, so skip it.

For the compound CC(C)C[C@@H]1NC(=O)[C@@H](N(C)C(=O)[C@@H](NC(=O)[C@@H]2C[C@@H](F)CN2C(=O)C2(C(F)(F)F)CC(F)(F)C2)C2CC2)CCCCCCCNC(=O)[C@H](Cc2cc(F)ccc2-c2ccc(N3CCOCC3)cc2)N(C)C1=O [Example 334] ({cBuCO(3,3-F2-1-CF3)}-[Pro(trans-4-F)][Gly(cPr)][NMe(hhhLys)]L[X87]; lactam 3-C) , what IC50 is on record?
0.02

What would you report for CC(C)C[C@@H]1NC(=O)[C@@H](N(C)C(=O)[C@@H](NC(=O)[C@@H]2C[C@@H](F)CN2C(=O)C2(C(F)(F)F)CC(F)(F)C2)C2CC2)CCCCCCCN(C)C(=O)[C@H](Cc2cc(Cl)ccc2-c2cnn(S(=O)(=O)C3CC3)c2)N(C)C1=O [Example 254] ({cBuCO(3,3-F2-1-CF3)}-[Pro(trans-4-F)][Gly(cPr)][NMehhhLys(Me)]L[X42]; lactam 3-C) ?
0.03

What would you report for CC(C)C[C@@H]1NC(=O)[C@@H](N(C)C(=O)[C@@H](NC(=O)[C@@H]2C[C@@H](F)CN2C(=O)[C@@]2(C)CC2(F)F)C2CC2)CCCCCCCN(C)C(=O)[C@H](Cc2cc(Cl)ccc2-c2ccc(N3CCOCC3)cc2)N(C)C1=O [Example 400] (X102-[Pro(trans-4-F)][Gly(cPr)][NMehhhLys(Me)]L[NMePhe(2-(4-MorPh),5-Cl)]; lactam 3-C) ?
0.02

* * *

# system_under_test: CyclinA2/CDK2 (Homo sapiens, UniProt P20248)
# Construct: purchased CRELUX Protein Services
# protocol_details: Fluorescence Polarization (FP) competitive binding assay, Cyclin A2/Cdk2;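 also: plates equilibrated two hours at room temperature before polarization reading, IC50 fitted from eight-concentration compound titration curves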
# settings: 8 nM Cyclin A2/Cdk2, 2 nM FAM probe; average of 2-3 independent experiments; read-out: Cyclin A FP IC50
*1 amine or outer side, *2 acyl side, *3 side chain or, on linkers, in order; H or OH if unused. Where a SMILES comes first, the peptide text is derived from it. Bridges are numbered along the chain shown (N, C = ends). [ ]: non-standard residue; d: D form. The star is where a group is joined. X78 = CN1CCN(C2(c3ccc(-c4ccc(Cl)cc4C[C@@H](C(=O)[*:2])N(C)[*:1])cc3)CC2)CC1; X169 = CN([C@@H](Cc1cc(Cl)ccc1-c1ccc(-c2cnn3c2COCC3)cc1)C(=O)[*:2])[*:1]; X185 = CN([C@@H](Cc1cc(Cl)ccc1-c1ccc(N2CCOC(C)(C)C2)cc1)C(=O)[*:2])[*:1]; X80 = CN1CC=C(c2ccc(-c3ccc(Cl)cc3C[C@@H](C(=O)[*:2])N(C)[*:1])cc2)CC1; X193 = CN([C@@H](Cc1cc(Cl)ccc1-c1cnc2nonc2c1)C(=O)[*:2])[*:1]; X19 = CN([C@@H](Cc1cc(Cl)ccc1-c1ccn2ccnc2c1)C(=O)[*:2])[*:1]; NMehhhLys(Me) = CN([C@@H](CCCCCCCN(C)[*:3])C(=O)[*:2])[*:1]; X206 = CN([C@@H](Cc1cc(Cl)cnc1Cc1cnn(C)c1)C(=O)[*:2])[*:1]; X104 = CN([C@@H](Cc1cc(Cl)ccc1C1=CCOCC1)C(=O)[*:2])[*:1]; X194 = CN([C@@H](Cc1cc(Cl)ccc1-c1ccnnc1)C(=O)[*:2])[*:1]; NMe(hhhLys) = CN([C@@H](CCCCCCCN[*:3])C(=O)[*:2])[*:1]; NMe3Pal(2-OMe,5-Cl) = CN[C@@H](Cc1cc(Cl)cnc1OC)C(=O)O; Oxane2carbonyl(2R-CF3) = O=C([C@@]1(C(F)(F)F)CCCCO1)*; Cyclobutanecarbonyl(1-CF3) = O=C(C1(C(F)(F)F)CCC1)*; cBuCO(3,3-F2-1-CF3) = O=C(C1(C(F)(F)F)CC(F)(F)C1)*; Pro(trans-4-F) = O=C(O)[C@@H]1C[C@@H](F)CN1; Gly(cPr) = N[C@H](C(=O)O)C1CC1
measured_quantity: IC50 (nM)
Give the number; nM is assumed, so skip it.

For the compound CC(C)C[C@@H]1NC(=O)[C@@H](N(C)C(=O)[C@@H](NC(=O)[C@@H]2C[C@@H](F)CN2C(=O)C2(C(F)(F)F)CC(F)(F)C2)C2CC2)CCCCCCCN(C)C(=O)[C@H](Cc2cc(Cl)ccc2-c2ccc(C3(N4CCN(C)CC4)CC3)cc2)N(C)C1=O [Example 381] ({cBuCO(3,3-F2-1-CF3)}-[Pro(trans-4-F)][Gly(cPr)][NMehhhLys(Me)]L[X78]; lactam 3-C) , what IC50 is on record?
20

What would you report for CC(C)C[C@@H]1NC(=O)[C@@H](N(C)C(=O)[C@@H](NC(=O)[C@@H]2C[C@@H](F)CN2C(=O)C2(C(F)(F)F)CC(F)(F)C2)C2CC2)CCCCCCCN(C)C(=O)[C@H](Cc2cc(Cl)ccc2-c2cnc3nonc3c2)N(C)C1=O [Example 171] ({cBuCO(3,3-F2-1-CF3)}-[Pro(trans-4-F)][Gly(cPr)][NMehhhLys(Me)]L[X193]; lactam 3-C) ?
80

What would you report for CC(C)C[C@@H]1NC(=O)[C@@H](N(C)C(=O)[C@@H](NC(=O)[C@@H]2C[C@@H](F)CN2C(=O)C2(C(F)(F)F)CC(F)(F)C2)C2CC2)CC=CCCCCNC(=O)[C@H](Cc2cc(Cl)cnc2OC2CC2)N(C)C1=O (single isomer, unassigned) [Example 102-P1] ?
310

What would you report for COc1ncc(Cl)cc1C[C@H]1C(=O)N(C)CCCCCCC[C@H](N(C)C(=O)[C@@H](NC(=O)[C@@H]2C[C@@H](F)CN2C(=O)C2(C(F)(F)F)CCC2)C2CC2)C(=O)N[C@@H](CC(C)C)C(=O)N1C [Example 224] ({Cyclobutanecarbonyl(1-CF3)}-[Pro(trans-4-F)][Gly(cPr)][NMehhhLys(Me)]L[NMe3Pal(2-OMe,5-Cl)]; lactam 3-C) ?
30

What would you report for CC(C)C[C@@H]1NC(=O)[C@@H](N(C)C(=O)[C@@H](NC(=O)[C@@H]2C[C@@H](F)CN2C(=O)C2(C(F)(F)F)CC(F)(F)C2)C2CC2)CCCCCCCN(C)C(=O)[C@H](Cc2cc(Cl)ccc2C2=CCOCC2)N(C)C1=O [Example 51] ({cBuCO(3,3-F2-1-CF3)}-[Pro(trans-4-F)][Gly(cPr)][NMehhhLys(Me)]L[X104]; lactam 3-C) ?
20

What would you report for CC(C)C[C@@H]1NC(=O)[C@@H](N(C)C(=O)[C@@H](NC(=O)[C@@H]2C[C@@H](F)CN2C(=O)C2(C(F)(F)F)CC(F)(F)C2)C2CC2)CCCCCCCN(C)C(=O)[C@H](Cc2cc(Cl)ccc2-c2ccc(-c3cnn4c3COCC4)cc2)N(C)C1=O [Example 378] ({cBuCO(3,3-F2-1-CF3)}-[Pro(trans-4-F)][Gly(cPr)][NMehhhLys(Me)]L[X169]; lactam 3-C) ?
20

What would you report for CC(C)C[C@@H]1NC(=O)[C@@H](N(C)C(=O)[C@@H](NC(=O)[C@@H]2C[C@@H](F)CN2C(=O)C2(C(F)(F)F)CC(F)(F)C2)C2CC2)CCCCCCCN(C)C(=O)[C@H](Cc2cc(Cl)ccc2-c2ccc(N3CCOC(C)(C)C3)cc2)N(C)C1=O [Example 366] ({cBuCO(3,3-F2-1-CF3)}-[Pro(trans-4-F)][Gly(cPr)][NMehhhLys(Me)]L[X185]; lactam 3-C) ?
20

What would you report for CC(C)C[C@@H]1NC(=O)[C@@H](N(C)C(=O)[C@@H](NC(=O)[C@@H]2C[C@@H](F)CN2C(=O)C2(C(F)(F)F)CC(F)(F)C2)C2CC2)CCCCCCCN(C)C(=O)[C@H](Cc2cc(Cl)ccc2-c2ccc(C3=CCN(C)CC3)cc2)N(C)C1=O [Example 351] ({cBuCO(3,3-F2-1-CF3)}-[Pro(trans-4-F)][Gly(cPr)][NMehhhLys(Me)]L[X80]; lactam 3-C) ?
20

What would you report for CC(C)C[C@@H]1NC(=O)[C@@H](N(C)C(=O)[C@@H](NC(=O)[C@@H]2C[C@@H](F)CN2C(=O)C2(C(F)(F)F)CC(F)(F)C2)C2CC2)CCCCCCCNC(=O)[C@H](Cc2cc(Cl)ccc2-c2ccnnc2)N(C)C1=O [Example 291] ({cBuCO(3,3-F2-1-CF3)}-[Pro(trans-4-F)][Gly(cPr)][NMe(hhhLys)]L[X194]; lactam 3-C) ?
70

What would you report for CC(C)C[C@@H]1NC(=O)[C@@H](N(C)C(=O)[C@@H](NC(=O)[C@@H]2C[C@@H](F)CN2C(=O)C2(C(F)(F)F)CC(F)(F)C2)C2CC2)CC=CCCCCNC(=O)[C@H](Cc2cc(Cl)ccc2C2=CCOCC2)N(C)C1=O ?
90

What would you report for CC(C)C[C@@H]1NC(=O)[C@@H](N(C)C(=O)[C@@H](NC(=O)[C@@H]2C[C@@H](F)CN2C(=O)C2(C(F)(F)F)CC(F)(F)C2)C2CC2)CCCCCCCN(C)C(=O)[C@H](Cc2cc(Cl)ccc2-c2ccn3ccnc3c2)N(C)C1=O [Example 236] ({cBuCO(3,3-F2-1-CF3)}-[Pro(trans-4-F)][Gly(cPr)][NMehhhLys(Me)]L[X19]; lactam 3-C) ?
30

What would you report for CC(C)C[C@@H]1NC(=O)[C@@H](N(C)C(=O)[C@@H](NC(=O)[C@@H]2C[C@@H](F)CN2C(=O)[C@@]2(C(F)(F)F)CCCCO2)C2CC2)CCCCCCCN(C)C(=O)[C@H](Cc2cc(Cl)cnc2Cc2cnn(C)c2)N(C)C1=O [Example 332] ({Oxane2carbonyl(2R-CF3)}-[Pro(trans-4-F)][Gly(cPr)][NMehhhLys(Me)]L[X206]; lactam 3-C) ?
20
